Hey, just so you know, these numbers are from paper PMC10548220.

Reported log10(kon) values follow for various binders
Target: T1, recombinant human TIGIT-Fc carrier-free protein (Homo sapiens (Human)., UniProt Q495A1-1)
T1 construct: T cell Ig and ITIM domain receptor (TIGIT), human; also called hTIGIT-Fc; human TIGIT recombinant protein; source: bought: Biolegend (Cat. No. 768608)
T1 sequence (Q495A1 22-141): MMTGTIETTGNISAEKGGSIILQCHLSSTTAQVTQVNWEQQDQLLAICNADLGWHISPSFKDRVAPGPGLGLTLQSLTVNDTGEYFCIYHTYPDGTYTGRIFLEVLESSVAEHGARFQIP
Test: SPR; Biacore T200; m/hTIGIT-Fc (10 µg/mL in 10 mM Na-acetate pH 4.0) immobilised on a CM5 chip; Nbs or scFv injected in two-fold dilutions from 200 nM, 10 µl/min, 25°C; HBS pH 7.4 (0.01 M HEPES, 0.15 M NaCl, 3 mM EDTA, 0.005% Tween 20); fit 1:1 binding with drift and RI2
Settings: both partners purified
Form field - Quantity: kon; Unit: M⁻¹ s⁻¹; Scale: log10

Answered cases to consult:
Binder: anti-hTIGIT Nb 17018 (VHH, nanobody from an immunized llama; Cloned in pHen6 after PCR with primers A6E and PMCF; source: E. coli WK6, periplasmic extract, purified (Ni-NTA, SEC); not shown: His6, C-terminal, kept) VHH: QVQLQESGGGLVQAGGSLRLSCTASSIFSINAMGWYRQTPGKQRELVARITNGSSTNYADSVKGRFTISRDNAKNTVYLQMNSLKPEDTAVYYCHTDLLLEVGAMRYWGQGTQVTVSS
log10(kon): 6.03

Binder: anti-hTIGIT Nb 16920 (VHH, nanobody from an immunized llama; Cloned in pHen6 after PCR with primers A6E and PMCF; source: E. coli WK6, periplasmic extract, purified (Ni-NTA, SEC); not shown: His6, C-terminal, kept) VHH: QVQLQESGGGFVQAGGSLRLSCAASSISSIYAMDWYRQAPGKQREFVAGITSGGTTNYGSTVKGRFTISRDESKNTVDLQMNSLKPEDSAVYVCRATISWKIYSGQGTQVTVSS
log10(kon): 6.75

Binder: anti-hTIGIT Nb 17010 (VHH, nanobody from an immunized llama; Cloned in pHen6 after PCR with primers A6E and PMCF; source: E. coli WK6, periplasmic extract, purified (Ni-NTA, SEC); not shown: His6, C-terminal, kept) VHH: QVQLQESGGGSVQTGGSLRLSCAASNGFSINAMGWYRQSPGKQRELVARITSGSSTNYTNYADSVKGRFTISRDNAKNTGYLEMNLLKPEDTAVYYCHADVLLGGLQGLIQRFWGQGTQVTVSS
log10(kon): 6.37

Binder: single-chain variable fragment derived from the monoclonal antibody Vibostolimab (scFv, V domains shown, variable domain of the heavy chain (VH) of Vibostolimab (Merck); (G4S)3 linker; variable domain of the light chain (VL) of Vibostolimab (Merck); Cloned in pHen6; also called ScFv Vibo; Vibo scFv; source: E. coli WK6, periplasmic extract, purified (Ni-NTA, SEC), produced in the same way as the Nbs; not shown: His6, C-terminal, kept) VH: EVQLVQSGAEVKKPGSSVKVSCKASGYTFSSYVMHWVRQAPGQGLEWIGYIDPYNDGAKYAQKFQGRVTLTSDKSTSTAYMELSSLRSEDTAVYYCARGGPYGWYFDVWGQGTTVTVSS VL: DIQMTQSPSSLSASVGDRVTITCRASEHIYSYLSWYQQKPGKVPKLLIYNAKTLAEGVPSRFSGSGSGTDFTLTISSLQPEDVATYYCQHHFGSPLTFGQGTRLEIK
log10(kon): 5.92

Binder: anti-hTIGIT Nb 16925 (VHH, nanobody from an immunized llama; Cloned in pHen6 after PCR with primers A6E and PMCF; source: E. coli WK6, periplasmic extract, purified (Ni-NTA, SEC); not shown: His6, C-terminal, kept) VHH: QVQLQESGGGLVQAGGSLRLSCAASSISSINAMGWYRQPPGKQRELVARITFGHSTNYADSVKGRFTISRDNAKSTVYLQMNSLKPEDTAVYYCNADLLLNTQAIRAWGQGTQVTVSS
log10(kon): 5.66

--- query ---
Looking for the measured log10(kon) of anti-hTIGIT Nb 17037 (VHH, nanobody from an immunized llama; Cloned in pHen6 after PCR with primers A6E and PMCF; source: E. coli WK6, periplasmic extract, purified (Ni-NTA, SEC); not shown: His6, C-terminal, kept) VHH: QVQLQESGGGLVQAGGSLRLSCAASSTLSIDDMGWYRQAPEKHREFVATISRGGSTNYAASVKGRFTISRDNAKNTVFLQMNNLKSEDTAVYYCRATSTWRYYWAQGTQVTVSS , can you help?
7.13
